Data provenance is patent US10766873B2.

target: ErbB2 (Homo sapiens); experiment: ErbB2 phosphorylation in SKBR3 cells, dot blot (4G10); format: cell-based; set-up: endogenous in cells; host or cells: SKBR3
Sequence (P04626 23-1255): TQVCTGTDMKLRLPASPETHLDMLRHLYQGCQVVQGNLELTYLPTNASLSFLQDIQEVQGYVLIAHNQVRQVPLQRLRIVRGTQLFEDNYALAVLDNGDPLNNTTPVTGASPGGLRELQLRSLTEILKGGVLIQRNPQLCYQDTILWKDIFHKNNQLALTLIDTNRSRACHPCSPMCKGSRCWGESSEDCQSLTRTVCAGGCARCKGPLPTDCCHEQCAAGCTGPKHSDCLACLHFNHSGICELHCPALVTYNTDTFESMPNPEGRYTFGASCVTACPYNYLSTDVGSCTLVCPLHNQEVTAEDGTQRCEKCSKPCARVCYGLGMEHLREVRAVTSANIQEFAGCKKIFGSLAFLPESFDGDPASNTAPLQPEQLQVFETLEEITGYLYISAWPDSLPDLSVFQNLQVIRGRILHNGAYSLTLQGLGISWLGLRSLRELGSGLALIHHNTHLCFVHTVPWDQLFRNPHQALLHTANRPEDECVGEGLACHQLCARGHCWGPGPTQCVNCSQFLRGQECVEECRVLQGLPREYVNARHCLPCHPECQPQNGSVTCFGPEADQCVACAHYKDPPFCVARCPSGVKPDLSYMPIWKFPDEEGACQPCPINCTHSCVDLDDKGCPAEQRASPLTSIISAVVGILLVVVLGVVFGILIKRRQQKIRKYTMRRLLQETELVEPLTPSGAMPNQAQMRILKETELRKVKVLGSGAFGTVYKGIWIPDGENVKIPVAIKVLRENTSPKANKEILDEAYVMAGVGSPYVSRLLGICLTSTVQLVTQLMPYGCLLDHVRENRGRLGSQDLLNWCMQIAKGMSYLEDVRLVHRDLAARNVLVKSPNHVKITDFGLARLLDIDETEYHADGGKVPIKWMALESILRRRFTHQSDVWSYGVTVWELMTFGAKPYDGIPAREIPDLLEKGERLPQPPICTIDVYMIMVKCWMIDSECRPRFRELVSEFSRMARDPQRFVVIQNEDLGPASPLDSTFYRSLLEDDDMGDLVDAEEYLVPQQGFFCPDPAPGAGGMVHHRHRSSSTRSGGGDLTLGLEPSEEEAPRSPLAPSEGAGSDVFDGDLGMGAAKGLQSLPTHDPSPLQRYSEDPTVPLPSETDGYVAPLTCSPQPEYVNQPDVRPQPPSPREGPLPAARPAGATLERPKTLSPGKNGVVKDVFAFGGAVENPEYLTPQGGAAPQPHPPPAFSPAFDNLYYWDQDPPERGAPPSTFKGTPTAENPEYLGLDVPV
# IC50 annotations

Lookup result for `NCCN1CCN(CC/C=C2/c3ccccc3Sc3ccc(C(F)(F)F)cc32)CC1` ; measured IC50: 5 to 35 µM

Lookup result for `FCCN1CCN(CC/C=C2/c3ccccc3Sc3ccc(C(F)(F)F)cc32)CC1` ; measured IC50: 5 to 35 µM

###

# Emax annotations
biological target: ErbB2 (Homo sapiens); assay: ErbB2 phosphorylation in SKBR3 cells, dot blot (4G10); type: cell-based; design: endogenous in cells; host or cells: SKBR3; settings: SK-BR-3; SKBR3, 24 h, 0.625-80 μM; read-out: ErbB2 activation 24 h Max inhibition, %
State just the number; it will be interpreted in %.

// solved cases for Emax follow
CCOC(=O)C1CCN(CCC=C2c3ccccc3Sc3ccccc32)CC1; 27.5
O=C1c2ccccc2[Se](=O)N1c1ccccc1 (stereo not drawn) [EB1, Ebselen oxide]; 66.9
CCOC(=O)C1CCN(CCC=C2c3ccccc3Oc3ccccc32)CC1; 36.2
O=c1c2ccccc2sn1-c1ccc(Cl)cc1; 66.4

Lookup result for `FCCN1CCN(CC/C=C2/c3ccccc3Sc3ccc(C(F)(F)F)cc32)CC1` ; measured Emax: 51.4

Lookup result for `Cc1ccc(-n2sc3ccccc3c2=O)cc1` ; measured Emax: 43.8

Lookup result for O=c1c2ccccc2[se]n1-c1ccccc1 [EBa, reference compound] ; measured Emax: 15.6
